- Tested on: U2OS
- assay-info: cell viability relative to DMSO; higher = less toxic
- particulars: 72 h; 10000 nM
assay-metric: cell viability

Consider the reported cell viability for these molecules:
>>> test_value("COC(=O)Nc1nc2cc(C(=O)c3cccs3)ccc2[nH]1")
"24.3%"
>>> test_value("CC[N+](CC)(CC)CCC(O)(c1ccccc1)C1CCCCC1 (stereo not drawn)")
"103%"

Next molecule, please.
stdin: Query: cell viability; subject: NCCCS(=O)(=O)O [tramiprosate]
stdout: 94.7%

====

- Test system: U2OS
- assay-info: drug sensitivity score (DSS) for viability; higher = more toxic; extreme values may be limits of the assay
- particulars: 72 h
assay-metric: drug sensitivity score
Answer with the value's number alone.

>>> test_value("C[C@H](N[C@@H](CCc1ccccc1)C(=O)O)C(=O)N1Cc2ccccc2C[C@H]1C(=O)O [quinaprilat]")
0

stdin: Can you look up the measured drug sensitivity score of O=C(CC(c1ccccc1)c1ccccc1)N1CCN(C(c2ccccc2)c2ccccc2)CC1 [Z160] for me?
stdout: 0.1

stdin: Please report the recorded drug sensitivity score for O=C(O)CCC(=O)OC[C@@H](NC(=O)C(Cl)Cl)[C@H](O)c1ccc([N+](=O)[O-])cc1 [chloramphenicol-sodium-succinate] .
stdout: 0

stdin: Name the reported drug sensitivity score value associated with the compound OC[C@H]1O[C@@H](c2ccc(Cl)c(Cc3ccc(O[C@H]4CCOC4)cc3)c2)[C@H](O)[C@@H](O)[C@@H]1O [empagliflozin]
stdout: 0

stdin: So what does the record say about drug sensitivity score for `Cc1c(CC(C)(C)C(=O)O)n(Cc2ccc(Cl)cc2)c2ccc(F)cc12` ?
stdout: 0

stdin: Given the compound Cc1c[nH]c2ncnc(N3CCC(CN)(C(=O)Nc4cccc(OC(=O)N(C)C)c4)CC3)c12 [LX7101] , what is its reported drug sensitivity score?
stdout: 2.2

stdin: Return reported drug sensitivity score; argument: `N#Cc1ccc(-c2ccc(S(=O)(=O)Nc3cccc(N)n3)cc2)cc1`
stdout: 0

stdin: Name the reported drug sensitivity score value associated with the compound N#CC(Cc1ccc(O)cc1)c1ccc(O)cc1 (centres undefined) [diarylpropionitrile]
stdout: 0

stdin: Tell me the measured drug sensitivity score of O=C(O)CCCc1c[nH]c2ccccc12 [3-indolebutyric-acid] , please.
stdout: 0

stdin: Fill in the blank: the reported drug sensitivity score of C=CC(=O)Nc1cc2c(Nc3ccc(F)c(Cl)c3)ncnc2cc1OCCCN1CCOCC1 [canertinib] is ____.
stdout: 0

stdin: So what does the record say about drug sensitivity score for CC(C)C(=O)c1ccc(O)c(O)c1 [U-0521] ?
stdout: 0

stdin: Given CCCCCCCCCCCCCCC[C@@H](O)[C@@H](N)CO [safingol] , state its recorded drug sensitivity score.
stdout: 0

stdin: Need drug sensitivity score of `O=C(O)c1cc2cccc([N+](=O)[O-])c2[nH]1` , thanks.
stdout: 0

====

- System: Caco-2
- assay-info: cell viability relative to DMSO; higher = less toxic
- particulars: 72 h; 100 nM
assay-metric: cell viability (%)
Give just the number in %; leave the unit off.

>>> test_value("O=C1NCC2(CCN(CCc3ccccc3)CC2)O1 [fenspiride]")
91.2
>>> test_value("CC(=O)NCCC(=O)N[C@@H](Cc1c[nH]cn1)C(=O)O [N-acetylcarnosine]")
88.7

stdin: I would be grateful if you could share the reported cell viability for `Cn1c(N2CCCCS2(=O)=O)nc(C(=O)NCc2ccc(F)cc2)c(O)c1=O` .
stdout: 88.9

stdin: Param item = O=C(O)CCCc1c[nH]c2ccccc12 [3-indolebutyric-acid] ; retrieve measured cell viability.
stdout: 89.6
